Recorded values, source ChEMBL document CHEMBL1156597.

system: DU-145; assay: Cytotoxicity against human DU145 cells after 48 hrs by SRB assay; format: functional, cell-based; details: Homo sapiens, DU-145, 48 h; read-out: LC50 (the source's name)
MEASURED_PARAMETER: CC50 (µM)
// units = µM; emit number, no label

Illustrative cases are given below, each with its answer.
C/C=C1\NC(=O)[C@H](Cc2ccccc2)NC(=O)[C@@H](C(C)C)NC(=O)[C@@H]([C@H](C)CC)NC(=O)[C@H](NC(=O)[C@H](NC(=O)[C@H](CCCN)NC(=O)[C@H]2CCCN2C(=O)[C@H](NC(=O)[C@H](CC(C)C)NC(=O)[C@@H](NC(=O)[C@H](NC(=O)CCCC(C)C)C(C)C)[C@@H](C)O)C(C)C)[C@H](C)CC)[C@H](C)OC(=O)[C@H](C(C)C)NC1=O : 0.863
C/C=C1\NC(=O)[C@H](Cc2ccccc2)NC(=O)[C@@H](C(C)C)NC(=O)[C@@H]([C@H](C)CC)NC(=O)[C@H](NC(=O)[C@H](NC(=O)[C@H](CCCN)NC(=O)[C@H]2CCCN2C(=O)[C@H](NC(=O)CCCC(C)C)C(C)C)[C@H](C)CC)[C@H](C)OC(=O)[C@H](C(C)C)NC1=O : 22.3

# evaluate next
Prompt line: Which CC50 value is on record for C/C=C1\NC(=O)[C@H](Cc2ccccc2)NC(=O)[C@@H](C(C)C)NC(=O)[C@@H]([C@H](C)CC)NC(=O)[C@H](NC(=O)[C@H](NC(=O)[C@H](CCCN)NC(=O)[C@H]2CCCN2C(=O)[C@H](NC(=O)[C@@H](NC(=O)[C@@H](NC(=O)[C@H](NC(=O)CC(C)C)C(C)C)[C@@H](C)O)C(C)C)C(C)C)[C@H](C)CC)[C@H](C)OC(=O)[C@H](C(C)C)NC1=O ?
Response line: 1.66
